- System: DMS 114 tumor spheroids, viability % test/control
- test_name: Anticancer human tumor DMS 114 cell line growth inhibition; active = viability on the fitted dose curve at most 10% of control; inactive = the rest;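 also: luminescence used as a proxy for viable cells; spheroids exposed to compounds for 7 days before read-out; 100% = DMSO vehicle control viability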
- experimental_conditions: second compound 0.003 µM; first compound 0.1 µM; spheroids with HUVEC and MSC
Pick one and only one: active, inactive

Observe how each entry below is paired with its result.
CC1COCCN1c1cc(-c2ccnn2C)c2ccnc(-c3ccn[nH]3)c2n1 (stereo not drawn) + CC[C@@]1(O)C(=O)OCc2c1cc1n(c2=O)Cc2cc3c(CN(C)C)c(O)ccc3nc2-1
inactive
[2H]c1nc(C)nc([2H])c1-c1cc(NC[C@@H](C)c2cccc3c(C(=O)NC)ccnc23)ncn1 + CC[C@@]1(O)C(=O)OCc2c1cc1n(c2=O)Cc2cc3c(CN(C)C)c(O)ccc3nc2-1
inactive

# outcome recorded in this test, key = Cc1cc(C)c(CNC(=O)c2cc(-c3ccc(CN4CCOCC4)cc3)cc3c2cnn3C2CCCC2)c(=O)[nH]1 + COc1cc2c(cc1O)CCNC21CSC2c3c(OC(C)=O)c(C)c4c(c3C(COC1=O)N1C(O)C3Cc5cc(C)c(OC)c(O)c5C(C21)N3C)OCO4 active

###

- Test system: DMS 114 tumor spheroids, viability % test/control
- test_name: Anticancer human tumor DMS 114 cell line growth inhibition;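 also: luminescence used as a proxy for viable cells; spheroids exposed to compounds for 7 days before read-out; 100% = DMSO vehicle control viability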
- experimental_conditions: second compound 0.000949 µM; first compound 0.1 µM; hits give low values; spheroids with HUVEC and MSC
assay_metric: viability, T/C (%)
Form entry: value (%) — number only.

Cc1cc(C)c(CNC(=O)c2cc(-c3ccc(CN4CCOCC4)cc3)cc3c2cnn3C2CCCC2)c(=O)[nH]1 + COc1cc2c(cc1O)CCNC21CSC2c3c(OC(C)=O)c(C)c4c(c3C(COC1=O)N1C(O)C3Cc5cc(C)c(OC)c(O)c5C(C21)N3C)OCO4
3.63

Specify the recorded viability, T/C for [2H]c1nc(C)nc([2H])c1-c1cc(NC[C@@H](C)c2cccc3c(C(=O)NC)ccnc23)ncn1 + COc1cc2c(cc1O)CCNC21CSC2c3c(OC(C)=O)c(C)c4c(c3C(COC1=O)N1C(O)C3Cc5cc(C)c(OC)c(O)c5C(C21)N3C)OCO4 , system: DMS 114 tumor spheroids, viability % test/control. 4.99

###

- Test system: DMS 114 tumor spheroids, viability % test/control
- test_name: Anticancer human tumor DMS 114 cell line growth inhibition;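 also: luminescence used as a proxy for viable cells; spheroids exposed to compounds for 7 days before read-out; 100% = DMSO vehicle control viability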
- experimental_conditions: second compound 0.003 µM; first compound 0.1 µM; hits give low values; spheroids with HUVEC and MSC
Recorded viability, T/C by entry
The figure you give is taken to be in %; do not add the unit.

Please review the entries below; each comes with its answer.
COc1ccc([C@@H](O)c2cc(-c3ncnc4cc(N5CCOCC5)ccc34)c(F)cc2Cl)nn1 + CC[C@@]1(O)C(=O)OCc2c1cc1n(c2=O)Cc2cc3c(CN(C)C)c(O)ccc3nc2-1
110
COc1ccc([C@@H](O)c2cc(-c3ncnc4cc(N5CCOCC5)ccc34)c(F)cc2Cl)nn1 + COc1cc2c(cc1O)CCNC21CSC2c3c(OC(C)=O)c(C)c4c(c3C(COC1=O)N1C(O)C3Cc5cc(C)c(OC)c(O)c5C(C21)N3C)OCO4
0.28

--- query ---
Please report the measured viability, T/C for CC(C)n1c(=O)n(C)c2cnc3cc(F)c(-c4ccc(OCCCN5CCCCC5)nc4)cc3c21 + CC[C@@]1(O)C(=O)OCc2c1cc1n(c2=O)Cc2cc3c(CN(C)C)c(O)ccc3nc2-1 72.8
